# System: HCC1569;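 also: TDF is a line of transformed human dermal fibroblasts of mesenchymal origin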
# ASSAY_TEXT: H1.0 immunofluorescence intensity relative to DMSO (% of DMSO); higher = stronger H1.0 induction, active = 140 or more
# RUN_PARAMETERS: concentration: 10 µM; 24 h
Tag: Satisfied if measured H1.0 immunofluorescence intensity is not below 100, Not satisfied if it is.

>  <MOLECULE>
COC12C(COC(N)=O)C3=C(C(=O)C(C)=C(N)C3=O)N1CC1NC12 (stereo not drawn)

>  <LABEL_CLASS>
Not satisfied

$$$$
>  <MOLECULE>
CS(=O)c1ccc(-c2nc(-c3ccc(F)cc3)c(-c3ccncc3)[nH]2)cc1 (stereo not drawn)

>  <LABEL_CLASS>
Satisfied

$$$$
>  <MOLECULE>
NC(CC(=O)[O-])C(=O)O.NC(CC(=O)[O-])C(=O)O.[Mg+2] [magnesium bis[(3S)-3-amino-3-carboxypropanoate]]

>  <LABEL_CLASS>
Satisfied

$$$$
>  <MOLECULE>
Nc1nc2ccc(OC(F)(F)F)cc2s1

>  <LABEL_CLASS>
Not satisfied

$$$$
>  <MOLECULE>
OC[C@H]1NC[C@@H](O)[C@@H]1O

>  <LABEL_CLASS>
Not satisfied

$$$$
>  <MOLECULE>
CC(=O)NCCOC(=O)[C@H](Oc1cccc(C(F)(F)F)c1)c1ccc(Cl)cc1

>  <LABEL_CLASS>
Satisfied

$$$$
>  <MOLECULE>
CCCCN1CCCCC1C(=O)Nc1c(C)cccc1C (stereo not drawn)

>  <LABEL_CLASS>
Satisfied

$$$$
>  <MOLECULE>
CC(C)=CCC(OC(=O)C=C(C)C)C1=CC(=O)c2c(O)ccc(O)c2C1=O (stereo not drawn) [Shikonin beta,beta-dimethylacrylate]

>  <LABEL_CLASS>
Satisfied

$$$$
>  <MOLECULE>
O=c1c(O)c(-c2cc(O)c(O)c(O)c2)oc2cc(O)ccc12

>  <LABEL_CLASS>
Not satisfied

$$$$
>  <MOLECULE>
C[C@@H](Oc1cc(-c2cnn(C3CCNCC3)c2)cnc1N)c1c(Cl)ccc(F)c1Cl

>  <LABEL_CLASS>
Satisfied

$$$$
>  <MOLECULE>
CNCCC(Oc1ccc(C(F)(F)F)cc1)c1ccccc1 (stereo not drawn)

>  <LABEL_CLASS>
Satisfied

$$$$
>  <MOLECULE>
COc1ccc2nc(S(=O)Cc3ncc(C)c(OC)c3C)[nH]c2c1 (stereo not drawn)

>  <LABEL_CLASS>
Satisfied

$$$$
>  <MOLECULE>
Cc1ccc([N+](=O)[O-])cc1S(=O)(=O)N(C)N=Cc1cnc2ccc(Br)cn12

>  <LABEL_CLASS>
Satisfied

$$$$

This collection of values is drawn from the supplement of paper PMC7156485.
